Target: human CXCR4 (Homo sapiens)
Construct: expressed in transfected cells; host or cells: HEK-293 cells (stably expressing human macrophage scavenging receptor) transduced with human CXCR4 BacMam and Gqi5 BacMam baculoviruses
Sequence (P61073 whole entry): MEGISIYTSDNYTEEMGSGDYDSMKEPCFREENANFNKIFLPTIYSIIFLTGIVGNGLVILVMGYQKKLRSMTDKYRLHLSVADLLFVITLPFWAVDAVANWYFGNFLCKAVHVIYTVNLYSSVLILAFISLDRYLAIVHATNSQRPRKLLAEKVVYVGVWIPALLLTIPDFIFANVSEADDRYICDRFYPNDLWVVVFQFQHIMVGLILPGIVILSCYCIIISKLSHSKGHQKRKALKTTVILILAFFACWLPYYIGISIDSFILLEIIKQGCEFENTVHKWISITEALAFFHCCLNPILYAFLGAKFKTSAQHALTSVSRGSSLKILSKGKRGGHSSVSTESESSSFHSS
Assay: Functional FLIPR assay (block of SDF-1 alpha induced [Ca2+]i change)
Type: cell-based
Details: HEK-293 cells with human CXCR4 BacMam and Gqi5 BacMam; antagonism of SDF-1 alpha; read-out: Functional assay (pIC50) (converted)
Method: Human embryonic kidney (HEK-293) cells were maintained and harvested as described above. […] After the required incubation time the cells were washed once with 50 ul of fresh serum-free DMEM/F12 media containing probenicid. […] Cell plates were transferred to a Fluorometric Imaging Plate Reader (FLIPR). […]
The following compounds are shown together with reported IC50 values.
Use nM as the unit, but write only the number.

Guide cases for IC50, answers given:
CN(Cc1nc2cc(CN)ccc2[nH]1)C1CCCc2cccnc21 (stereo not drawn) [Example 17] = 257
CN(C)CCCNC(=O)c1cccc2[nH]c(CN(C)C3CCCc4cccnc43)nc12 (stereo not drawn) [Example 29] = 132

Attention now turns to another entry.
Lab book: IC50 of CN(Cc1nc2cc(CNCCCN)ccc2[nH]1)C1CCCc2cccnc21 (stereo not drawn) [Example 18] noted as 151
